target.or.test.system: LK35.2-hPD-L1 cells / PE-labeled PD-1-Ig (Homo sapiens, UniProt Q9NZQ7)
Construct: expressed in transfected cells; host or cells: LK35.2 mouse B cell line
Sequence (Q9NZQ7 19-290): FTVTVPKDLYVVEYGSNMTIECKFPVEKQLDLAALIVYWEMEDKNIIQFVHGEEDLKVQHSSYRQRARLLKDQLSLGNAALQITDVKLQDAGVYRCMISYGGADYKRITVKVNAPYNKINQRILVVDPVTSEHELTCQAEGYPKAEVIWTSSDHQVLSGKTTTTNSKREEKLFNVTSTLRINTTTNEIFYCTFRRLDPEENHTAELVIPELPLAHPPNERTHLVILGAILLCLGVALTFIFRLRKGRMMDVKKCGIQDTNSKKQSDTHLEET
test: LK35.2-hPD-L1 cell binding high-content screening assay
Type: cell-based
test.parameters: cluster symbol; cell line of CBA not given (LK35.2-hPD-L1 or 293T-hPD-L1); read-out: CBA IC50 cluster
pIC50: −log10 of the molar value. Positions of bridges follow the written chain, without caps; N, C: chain ends. Non-standard residues stand in square brackets, D forms with d. Residues, ends and D or L forms follow the SMILES beside them. Tyr(3,5-Br2) = N[C@@H](Cc1cc(Br)c(O)c(Br)c1)C(=O)O; NMeF = CN[C@@H](Cc1ccccc1)C(=O)O; NMeNle = CCCC[C@H](NC)C(=O)O; Sar = CNCC(=O)O
endpoint.label: pIC50

Lab note: need pIC50 with LK35.2-hPD-L1 cells / PE-labeled PD-1-Ig (Homo sapiens, UniProt Q9NZQ7) for entry CCCC[C@H]1C(=O)N(C)CC(=O)N[C@@H](CC(=O)O)C(=O)N[C@@H](C(C)C)C(=O)N(C)[C@@H](Cc2ccccc2)C(=O)N[C@@H](Cc2cc(Br)c(O)c(Br)c2)C(=O)N(C)CC(=O)N[C@@H](Cc2c[nH]c3ccccc23)C(=O)N[C@@H](Cc2ccc(O)cc2)C(=O)N[C@@H](CC(C)C)C(=O)N[C@H](C(=O)NCC(N)=O)CSCC(=O)N[C@@H](Cc2ccccc2)C(=O)N(C)[C@@H](Cc2ccccc2)C(=O)N1C [Example 3113] ({CH2CO}-F[NMeF][NMeNle][Sar]DV[NMeF][Tyr(3,5-Br2)][Sar]WYLCG-NH2; thioether N-13) , please look it up.
7.14 to 8.32

###

target.or.test.system: Human PD-L1/PD-1 (Homo sapiens)
Construct: made in house; host or cells: HEK293T
Sequence (Q9NZQ7 with tags, fused parts or gaps): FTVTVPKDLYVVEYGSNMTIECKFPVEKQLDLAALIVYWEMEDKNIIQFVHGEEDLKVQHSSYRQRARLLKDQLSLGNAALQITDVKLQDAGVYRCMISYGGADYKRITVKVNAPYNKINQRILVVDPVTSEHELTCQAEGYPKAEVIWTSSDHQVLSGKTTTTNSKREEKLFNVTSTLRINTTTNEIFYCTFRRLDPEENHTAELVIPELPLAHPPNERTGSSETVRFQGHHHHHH
test: HTRF PD-1-Ig/PD-L1-His binding assay (human PD-L1)
test.parameters: cluster symbol; read-out: HTRF IC50 cluster
Positions of bridges follow the written chain, without caps; N, C: chain ends. Non-standard residues stand in square brackets, D forms with d. Residues, ends and D or L forms follow the SMILES beside them. ξ: configuration not given here. Phe(4-CH2NH2) = NCc1ccc(C[C@H](N)C(=O)O)cc1; Bip = N[C@@H](Cc1ccc(-c2ccccc2)cc1)C(=O)O; Phe(4-F) = N[C@@H](Cc1ccc(F)cc1)C(=O)O; Bta = N[C@@H](Cc1csc2ccccc12)C(=O)O; cisHyp = O=C(O)[C@@H]1C[C@H](O)CN1; Hyp = O=C(O)[C@@H]1C[C@@H](O)CN1; NMeF = CN[C@@H](Cc1ccccc1)C(=O)O; Thr(3ξ) = CC(O)[C@H](N)C(=O)O; NMeNle = CCCC[C@H](NC)C(=O)O; NMeM = CN[C@@H](CCSC)C(=O)O; NMeA = CN[C@@H](C)C(=O)O; Orn = NCCC[C@H](N)C(=O)O; Dab = NCC[C@H](N)C(=O)O; ξC = NC(CS)C(=O)O; Sar = CNCC(=O)O
endpoint.label: IC50

- CCCC[C@H]1C(=O)N[C@@H](CCCNC(=N)N)C(=O)NC(C(=O)NCC(N)=O)CSCC(=O)N[C@@H](Cc2ccc(O)cc2)C(=O)N(C)[C@@H](C)C(=O)N[C@@H](CC(N)=O)C(=O)N2CCC[C@H]2C(=O)N[C@@H](Cc2cnc[nH]2)C(=O)N[C@@H](CO)C(=O)N2CCC[C@H]2C(=O)N[C@@H](Cc2c[nH]c3ccccc23)C(=O)N[C@@H](CO)C(=O)N[C@@H](Cc2c[nH]c3ccccc23)C(=O)N(C)[C@@H](CCSC)C(=O)N1C (some centres unmarked) [Example 9109] ({CH2CO}-Y[NMeA]NPHSPWSW[NMeM][NMeNle]R[ξC]G-NH2; thioether N-14): 6.76 to 30.3 nM
- CCCC[C@H]1C(=O)N(C)[C@@H](CCCC)C(=O)N[C@@H](C)C(=O)N[C@H](C(N)=O)CSCC(=O)N[C@@H](Cc2ccc(O)cc2)C(=O)N(C)[C@@H](C)C(=O)N[C@@H](CCC(=O)O)C(=O)N2CCC[C@H]2C(=O)N[C@@H](Cc2cnc[nH]2)C(=O)N[C@@H](CCN)C(=O)N2C[C@H](O)C[C@H]2C(=O)N[C@@H](Cc2c[nH]c3ccccc23)C(=O)N[C@@H](CO)C(=O)N[C@@H](Cc2c[nH]c3ccccc23)C(=O)N1C [Example 1239] ({CH2CO}-Y[NMeA]EPH[Dab][Hyp]WSW[NMeNle][NMeNle]AC-NH2; thioether N-14): 6.76 to 30.3 nM
- CCCC[C@H]1C(=O)N(C)[C@@H](CCCC)C(=O)N[C@@H](CCCCN)C(=O)N[C@H](C(=O)NCC(N)=O)CSCC(=O)N[C@@H](Cc2ccc(O)cc2)C(=O)N(C)[C@@H](C)C(=O)N[C@@H](CC(N)=O)C(=O)N2CCC[C@H]2C(=O)N[C@@H](Cc2c[nH]cn2)C(=O)N[C@@H](CCC(=O)O)C(=O)N2C[C@H](O)C[C@H]2C(=O)N[C@@H](Cc2c[nH]c3ccccc23)C(=O)N[C@@H](CO)C(=O)N[C@@H](Cc2c[nH]c3ccccc23)C(=O)N1C [Example 5139] ({CH2CO}-Y[NMeA]NPHE[Hyp]WSW[NMeNle][NMeNle]KCG-NH2; thioether N-14): 0.385 to 6.74 nM
- CCCC[C@H]1C(=O)N(C)CC(=O)N[C@@H](CC(=O)O)C(=O)N[C@@H](C(C)C)C(=O)N(C)[C@@H](Cc2ccccc2)C(=O)N[C@@H](Cc2ccc(CN)cc2)C(=O)N(C)CC(=O)N[C@@H](Cc2csc3ccccc23)C(=O)N[C@@H](Cc2ccc(O)cc2)C(=O)N[C@@H](CC(C)C)C(=O)N[C@H](C(=O)NCC(N)=O)CSCC(=O)N[C@@H](Cc2ccc(F)cc2)C(=O)N(C)[C@@H](Cc2ccccc2)C(=O)N1C [Example 3120] ({CH2CO}-[Phe(4-F)][NMeF][NMeNle][Sar]DV[NMeF][Phe(4-CH2NH2)][Sar][Bta]YLCG-NH2; thioether N-13): 6.76 to 30.3 nM
- CCCC[C@H]1C(=O)N(C)[C@@H](CCCC)C(=O)N[C@@H](CCCNC(=N)N)C(=O)N[C@H](C(=O)NCC(N)=O)CSCC(=O)N[C@@H](Cc2ccc(O)cc2)C(=O)N(C)[C@@H](C)C(=O)N[C@@H](CCCN)C(=O)N2CCC[C@H]2C(=O)N[C@@H](C)C(=O)N[C@@H](CCC(=O)O)C(=O)N2C[C@@H](O)C[C@H]2C(=O)N[C@@H](Cc2c[nH]c3ccccc23)C(=O)N[C@@H](CO)C(=O)N[C@@H](Cc2c[nH]c3ccccc23)C(=O)N1C [Example 1147] ({CH2CO}-Y[NMeA][Orn]PAE[cisHyp]WSW[NMeNle][NMeNle]RCG-NH2; thioether N-14): 6.76 to 30.3 nM

Hi there! I need IC50 for each item below, if you can.
1. CCCC[C@H]1C(=O)N(C)[C@@H](CCCC)C(=O)N[C@@H](CCCNC(=N)N)C(=O)N[C@H](C(=O)NCC(N)=O)CSCC(=O)N[C@@H](Cc2ccccc2)C(=O)N(C)[C@@H](C)C(=O)N[C@@H](CC(N)=O)C(=O)N2CCC[C@H]2C(=O)N[C@@H](Cc2cnc[nH]2)C(=O)N[C@@H](C(C)O)C(=O)N(C)CC(=O)N[C@@H](Cc2c[nH]c3ccccc23)C(=O)N[C@@H](CO)C(=O)N[C@@H](Cc2c[nH]c3ccccc23)C(=O)N1C (some centres unmarked) [Example 6005] ({CH2CO}-F[NMeA]NPH[Thr(3ξ)][Sar]WSW[NMeNle][NMeNle]RCG-NH2; thioether N-14)
2. CCCC[C@H]1C(=O)N(C)CC(=O)N[C@@H](CC(=O)O)C(=O)N[C@@H](C(C)C)C(=O)N(C)[C@@H](Cc2ccccc2)C(=O)N[C@@H](Cc2ccc(CN)cc2)C(=O)N(C)CC(=O)N[C@@H](Cc2c[nH]c3ccccc23)C(=O)N[C@@H](Cc2ccc(O)cc2)C(=O)N[C@@H](CC(C)C)C(=O)N[C@H](C(=O)NCC(N)=O)CSCC(=O)N[C@@H](Cc2ccc(F)cc2)C(=O)N(C)[C@@H](Cc2ccccc2)C(=O)N1C [Example 3123] ({CH2CO}-[Phe(4-F)][NMeF][NMeNle][Sar]DV[NMeF][Phe(4-CH2NH2)][Sar]WYLCG-NH2; thioether N-13)

6.76 to 30.3 nM
6.76 to 30.3 nM

Query the reported IC50 for Human PD-L1/PD-1 (Homo sapiens); item: CCCC[C@H]1C(=O)N(C)CC(=O)N[C@@H](CC(=O)O)C(=O)N[C@@H](C(C)C)C(=O)N(C)[C@@H](Cc2ccccc2)C(=O)N[C@@H](Cc2ccc(O)cc2)C(=O)N(C)CC(=O)N[C@@H](Cc2ccc(-c3ccccc3)cc2)C(=O)N[C@@H](Cc2ccc(O)cc2)C(=O)N[C@@H](CC(C)C)C(=O)N[C@H](C(=O)NCC(N)=O)CSCC(=O)N[C@@H](Cc2ccccc2)C(=O)N(C)[C@@H](Cc2ccccc2)C(=O)N1C [Example 3545] ({CH2CO}-F[NMeF][NMeNle][Sar]DV[NMeF]Y[Sar][Bip]YLCG-NH2; thioether N-13)
> 30.5 nM
